meta.source: paper PMC7156458

Consider the following molecules and their measured Th-T fluorescence, mean of three wells (Fig. 7a) readings.
Biological target: Aβ42 (Homo sapiens, UniProt P05067)
Sequence (P05067 672-713): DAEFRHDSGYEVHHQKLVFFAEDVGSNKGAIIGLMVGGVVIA
Assay: Th-T (thioflavin-T) assay of Aβ42 aggregation
Type: biochemical
Details: reading M128; compound at 50 (head suffix _50)
metric_name: Th-T fluorescence, mean of three wells (Fig. 7a)

> print(dat)
                                   molecule  reading
1  C=C1CCC2C(C)(CCC=C(C)C)C(O)CCC2(C)C1Cc1c(OC)oc(CO)c(C)c1=O (centres unmarked)     1.57
2  C=C1CC[C@@H]2[C@](C)(CC[C@H]3O[C@H](C=C(C)C)C[C@@]23C)[C@@H]1Cc1c(OC)oc(CO)c(C(=O)OC)c1=O   0.4971
3  C=C1CCC2C(C)(CCC=C(C)C)C(O)CCC2(C)C1Cc1c(OC)oc(C)c(C(=O)OC)c1=O (centres unmarked)   0.8816
4  C=C1CCC2C(C)(CCC=C(C)C)C(O)CCC2(C)C1Cc1c(OC)oc(CO)c(C(=O)OC)c1=O (centres unmarked)   0.4748
5  C=C1CC[C@@H]2[C@](C)(CC[C@H]3O[C@H](C=C(C)C)C[C@@]23C)[C@@H]1Cc1c(OC)oc(CO)c(C)c1=O    2.109

* * *

Molecular target: UniProtKB P05067
Assay: Th-T (thioflavin-T) assay of Aβ42 aggregation
Format: biochemical
Conditions: column suffix _50; reading M1
Note to self: values exactly at 0.5 are yes. So Th-T assay signal, mean of three wells (Fig. 7a) at or above 0.5 is yes, below is no.

> print(dat)
                                   compound  qualitative.label
1  C=C1CC[C@@H]2[C@](C)(CC[C@H]3O[C@H](C=C(C)C)C[C@@]23C)[C@@H]1Cc1c(OC)oc(CO)c(C(=O)OC)c1=O [Compound 21]                 no
2  C=C1CC[C@@H]2[C@](C)(CC[C@H]3O[C@H](C=C(C)C)C[C@@]23C)[C@@H]1Cc1c(OC)oc(CO)c(C)c1=O [Compound 20]                 no
3  C=C1CCC2C(C)(CCC=C(C)C)C(O)CCC2(C)C1Cc1c(OC)oc(CO)c(C)c1=O (centres unmarked) [Compound 12]                yes

* * *

Biological target: Aβ42 (Homo sapiens, UniProt P05067)
Test: Th-T (thioflavin-T) assay of Aβ42 aggregation
Assay type: biochemical
Details: concentration 50, unit not given; time-course reading M133
Th-T fluorescence of Aβ42 with compound, mean of three wells (Fig. 7a source data): recorded values
metric_name: Th-T fluorescence of Aβ42 with compound, mean of three wells (Fig. 7a source data)

> print(dat)
                                   compound                         assay.system  reading
1  C=C1CC[C@@H]2[C@](C)(CC[C@H]3O[C@H](C=C(C)C)C[C@@]23C)[C@@H]1Cc1c(OC)oc(CO)c(C)c1=O  Aβ42 (Homo sapiens, UniProt P05067)    2.114
2  C=C1CC[C@@H]2[C@](C)(CC[C@H]3O[C@H](C=C(C)C)C[C@@]23C)[C@@H]1Cc1c(OC)oc(CO)c(C(=O)OC)c1=O  Aβ42 (Homo sapiens, UniProt P05067)   0.5033
3  C=C1CCC2C(C)(CCC=C(C)C)C(O)CCC2(C)C1Cc1c(OC)oc(CO)c(C)c1=O (centres unmarked)  Aβ42 (Homo sapiens, UniProt P05067)    1.602
4  C=C1CCC2C(C)(CCC=C(C)C)C(O)CCC2(C)C1Cc1c(OC)oc(CO)c(C(=O)OC)c1=O (centres unmarked)  Aβ42 (Homo sapiens, UniProt P05067)   0.4741
5  C=C1CCC2C(C)(CCC=C(C)C)C(O)CCC2(C)C1Cc1c(OC)oc(C)c(C(=O)OC)c1=O (centres unmarked)  Aβ42 (Homo sapiens, UniProt P05067)   0.8131
